Task for the reader: assign each of the following compounds its reported mortality at 24 h.
# test_method_notes: Acute toxicity in albino Wistar rat assessed as mortality at 50 mg/kg, po after 24 hrs
# Type: organism-based
# Set-up: dose 50 mg/kg, route oral
# condition_summary: in vivo, read-out: Activity
Give bare numbers, in %.

{"columns": ["test_smiles", "result"],
 "data": [
  ["CSCSc1nnc(-c2cn(-c3ccccc3)nc2CC(C)C)o1", 25]
]}

API: the following record is the query input.
GET /values?readout=mortality at 24 h&item= `CC(=O)OC[C@H]1O[C@@H](Sc2nnc(-c3cn(-c4ccccc4)nc3CC(C)C)o2)[C@H](OC(C)=O)[C@@H](OC(C)=O)[C@@H]1OC(C)=O`
25
